Let's look at some molecules and their measured IC50.
targetDesc: human recombinant 6His-Nterm SHP2 full-length (Thr2-Arg593) (Homo sapiens, UniProt Q06124)
Construct: 6His-Nterm SHP2 full-length (Thr2-Arg593, R&D system); 6His (N)
Sequence (Q06124 2-593): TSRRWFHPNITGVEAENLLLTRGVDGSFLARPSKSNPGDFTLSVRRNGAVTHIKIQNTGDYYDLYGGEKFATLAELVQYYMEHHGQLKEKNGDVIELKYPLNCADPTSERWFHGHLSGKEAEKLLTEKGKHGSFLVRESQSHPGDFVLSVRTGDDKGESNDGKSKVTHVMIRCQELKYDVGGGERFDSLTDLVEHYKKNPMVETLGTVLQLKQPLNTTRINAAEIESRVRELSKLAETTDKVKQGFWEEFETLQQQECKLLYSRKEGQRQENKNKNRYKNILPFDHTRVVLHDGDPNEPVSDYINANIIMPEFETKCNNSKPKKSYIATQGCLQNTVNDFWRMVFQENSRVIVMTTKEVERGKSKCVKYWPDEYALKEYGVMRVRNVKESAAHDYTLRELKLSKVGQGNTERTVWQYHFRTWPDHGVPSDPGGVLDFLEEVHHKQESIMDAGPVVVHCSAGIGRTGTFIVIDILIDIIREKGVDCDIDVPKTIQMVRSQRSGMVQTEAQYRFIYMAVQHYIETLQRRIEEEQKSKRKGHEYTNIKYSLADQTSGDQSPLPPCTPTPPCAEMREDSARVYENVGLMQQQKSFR
measurementDescription: SHP2 Phosphatase Assay (DiFMUP fluorescence)
measurementContext: SHP2 0.2 nM pre-incubated with 100 nM bi-phosphorylated activating peptide; compound 1000-0.05 nM, 30 min pre-incubation; DiFMUP 20 µM, 45 min, room temperature; 10-concentration dose-response
Where a name gives a salt, the structure may show the parent alone.
propertyName: IC50 (nM)

* Cc1nc(N2CCC3(CC2)Cc2ncccc2[C@H]3N)c2ccnn2c1-c1cncnc1 | 370
* Cc1nc(N2CCC3(CC2)Cc2ncccc2[C@H]3N)c2ccnn2c1Sc1cccnc1C(F)(F)F | 15
* Cc1nc(N2CCC3(CC2)Cc2ncccc2[C@H]3N)c2ccnn2c1-c1ccnc(CO)c1Cl | 16
* Cc1nc(N2CCC3(CC2)Cc2ncccc2[C@@H]3N)c2ccnn2c1-c1ccccc1 | 853
* Cc1nc(N2CCC3(CC2)Cc2ncccc2[C@H]3N)c2ccnn2c1-c1ccccc1 | 5
* Cc1nc(N2CCC3(CC2)Cc2ncccc2[C@H]3N)c2ccnn2c1Sc1ccnc(N)c1Cl | 4
* Cc1nc(N2CCC3(CC2)Cc2ccc(F)cc2[C@H]3N)c2ccnn2c1-c1cnn(C)c1C [Compound 103, hydrochloride] | 12
* COc1ccc(Cl)c(-c2c(C)nc(N3CCC4(CC3)Cc3ncccc3[C@H]4N)c3ccnn23)c1 | 15

Source: patent EP4227307A1
